Tested On: Glutamate NMDA receptor; Grin1/Grin2a (Rattus norvegicus) (UniProt P35439+Q00959)
Test Details: Negative allosteric modulation of rat GluN1a/GluN2A receptor expressed in Xenopus laevis oocytes assessed as suppression of 100 uM glutamate and 30 uM glycine induced-current at saturating compound level by voltage clamp recording method
Format: cell-based
Short version: inhibition at least 80% is Satisfied, less is Not satisfied.

As a guide, the following entries are already answered.
CCOC(=O)c1cc(CC)sc1NC(=O)CC1SC(=N)NC1=O (racemic) : Satisfied
CCOC(=O)c1c(NC(=O)CC2SC(=N)NC2=O)sc2c1CCOC2 (racemic) : Not satisfied
CCOC(=O)c1c(NC(=O)CC2SC(=N)NC2=O)sc2c1CCCC2 (racemic) : Not satisfied

Let us examine a further case.
Answer whether inhibition of CCOC(=O)c1cc(C)sc1NC(=O)CC1SC(=N)NC1=O (racemic) is greater than or equal to 80%.
Satisfied

###

Tested On: Ionotropic glutamate receptor NMDA 1/2D (Rattus norvegicus, UniProt P35439+Q62645)
Sequence (Q62645 whole entry, other chains not shown): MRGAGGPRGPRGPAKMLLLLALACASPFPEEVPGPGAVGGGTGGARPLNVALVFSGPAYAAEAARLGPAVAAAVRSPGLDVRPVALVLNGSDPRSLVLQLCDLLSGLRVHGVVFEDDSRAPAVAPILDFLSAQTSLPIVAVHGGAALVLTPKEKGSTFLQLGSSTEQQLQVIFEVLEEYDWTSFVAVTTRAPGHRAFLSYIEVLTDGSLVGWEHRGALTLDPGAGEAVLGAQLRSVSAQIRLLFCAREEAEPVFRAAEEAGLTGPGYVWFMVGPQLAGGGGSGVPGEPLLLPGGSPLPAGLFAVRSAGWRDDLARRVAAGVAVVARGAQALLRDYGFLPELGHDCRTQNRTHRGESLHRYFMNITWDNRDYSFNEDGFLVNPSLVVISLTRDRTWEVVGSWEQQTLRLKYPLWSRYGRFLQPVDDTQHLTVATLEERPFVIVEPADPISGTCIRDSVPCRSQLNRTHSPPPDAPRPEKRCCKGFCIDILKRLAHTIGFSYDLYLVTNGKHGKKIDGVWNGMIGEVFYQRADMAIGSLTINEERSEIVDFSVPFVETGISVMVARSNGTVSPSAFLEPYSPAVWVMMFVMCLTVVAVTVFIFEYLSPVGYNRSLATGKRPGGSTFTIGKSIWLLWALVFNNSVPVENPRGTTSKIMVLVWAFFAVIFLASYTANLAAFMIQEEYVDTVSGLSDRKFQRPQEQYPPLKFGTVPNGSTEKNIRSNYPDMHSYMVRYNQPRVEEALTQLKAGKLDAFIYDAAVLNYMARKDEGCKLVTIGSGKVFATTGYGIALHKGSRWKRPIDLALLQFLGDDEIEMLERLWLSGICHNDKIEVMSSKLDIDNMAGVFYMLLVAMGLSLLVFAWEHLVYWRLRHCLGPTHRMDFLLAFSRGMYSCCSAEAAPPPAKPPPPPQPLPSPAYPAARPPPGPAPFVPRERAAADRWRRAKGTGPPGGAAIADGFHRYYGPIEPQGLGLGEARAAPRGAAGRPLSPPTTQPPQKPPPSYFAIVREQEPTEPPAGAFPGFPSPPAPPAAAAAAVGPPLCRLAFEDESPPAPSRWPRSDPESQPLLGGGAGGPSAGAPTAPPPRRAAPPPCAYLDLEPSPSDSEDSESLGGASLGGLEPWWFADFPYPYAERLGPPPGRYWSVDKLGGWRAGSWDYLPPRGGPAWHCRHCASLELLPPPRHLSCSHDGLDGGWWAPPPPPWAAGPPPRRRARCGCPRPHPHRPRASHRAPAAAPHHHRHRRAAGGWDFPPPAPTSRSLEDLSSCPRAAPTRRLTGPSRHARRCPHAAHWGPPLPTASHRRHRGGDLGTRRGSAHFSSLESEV
Test Details: Negative allosteric modulation of rat GluN1a/GluN2D receptor expressed in Xenopus laevis oocytes assessed as suppression of 100 uM glutamate and 30 uM glycine induced-current by voltage clamp recording method
pIC50: −log10 of the molar value.
Short version: pIC50 at least 5 is MET, less is NOT MET.

As a guide, the following entries are already answered.
COC(=O)c1ccsc1NC(=O)CC1SC(=N)NC1=O (racemic) : NOT MET
CCc1cc(C(=O)OC)c(NC(=O)CC2SC(N)=NC2=O)s1 (racemic) : MET

Let us examine a further case.
Answer whether pIC50 of CCOC(=O)c1c(NC(=O)CC2SC(N)=NC2=O)sc2c1CCC(C)C2 (racemic) is greater than or equal to 5.
MET

###

Tested On: Glutamate NMDA receptor; Grin1/Grin2a (Rattus norvegicus) (UniProt P35439+Q00959)
Test Details: Negative allosteric modulation of rat GluN1a/GluN2A receptor expressed in Xenopus laevis oocytes assessed as suppression of 100 uM glutamate and 30 uM glycine induced-current at saturating compound level by voltage clamp recording method
Assay type: cell-based
Endpoint Name: inhibition (%)
I only need the number, in %, no unit after it.

CCOC(=O)c1c(NC(=O)CC2SC(N)=NC2=O)sc2c1CCC(C)C2 (racemic) : 88
CCOC(=O)c1c(NC(=O)CC2SC(=N)NC2=O)sc2c1CCC(C)(C)C2 (racemic) : 72
CCOC(=O)c1c(NC(=O)CC2SC(=N)NC2=O)sc2c1CCC(F)(F)C2 (racemic) : 84
CCOC(=O)c1c(NC(=O)CC2SC(=N)NC2=O)sc2c1CCC(CC)C2 (racemic) : 58
CCc1cc(C(=O)OC)c(NC(=O)CC2SC(N)=NC2=O)s1 (racemic) : 98
CCOC(=O)c1c(NC(=O)CC2SC(=N)NC2=O)sc2c1CCSC2 (racemic) : 82
COC(=O)c1c(NC(=O)CC2SC(N)=NC2=O)sc2c1CCCC2 (racemic) : 81
CCOC(=O)c1c(NC(=O)CC2SC(=N)NC2=O)sc(C)c1C (racemic) : 80

Now, please, on to the next molecule.
So what's the measured inhibition for this one? COC(=O)c1c(NC(=O)CC2SC(=N)NC2=O)sc(C)c1C (racemic)
88
